Ref: patent US20240400701A1

Target: T1, human AMHRII (anti-Mullerian hormone receptor type 2) (human, UniProt Q16671 18-573)
T1 construct: whole, on cells; also called AMHR2; human AMHR2
T1 sequence (looked up): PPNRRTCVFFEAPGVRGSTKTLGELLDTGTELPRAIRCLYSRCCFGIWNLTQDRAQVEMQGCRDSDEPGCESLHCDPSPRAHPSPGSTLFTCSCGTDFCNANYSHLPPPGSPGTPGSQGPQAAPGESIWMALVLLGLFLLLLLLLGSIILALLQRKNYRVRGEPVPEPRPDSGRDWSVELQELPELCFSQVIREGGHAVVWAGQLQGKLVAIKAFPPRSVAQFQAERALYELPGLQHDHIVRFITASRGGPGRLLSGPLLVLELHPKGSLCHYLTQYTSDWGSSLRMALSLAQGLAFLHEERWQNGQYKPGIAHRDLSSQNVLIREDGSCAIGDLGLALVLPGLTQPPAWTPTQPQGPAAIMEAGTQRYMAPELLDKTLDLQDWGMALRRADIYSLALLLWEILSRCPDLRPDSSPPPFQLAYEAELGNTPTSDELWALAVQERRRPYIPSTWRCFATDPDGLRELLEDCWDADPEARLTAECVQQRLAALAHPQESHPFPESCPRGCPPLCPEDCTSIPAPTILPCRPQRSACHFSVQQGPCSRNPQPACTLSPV
Experiment: FACS on CHO-K1 cells over-expressing human AMHR2
readout: EC50 (nM)
Return type: number; implicit unit nM.

# count of solved cases: 5
- binder: "31D9B3 H3L3 hIgG1 (antibody, V domains shown, Humanized, human IgG1; also called 31D9B3 H3L3 hlgG1) VH: QVQLVQSGAEVKVPGASVKMSCKASGYTFTDYWVSWVRQSPGQGLEWIGEIYPKNGVSNFNEKFKGRVTLTVDKSTSTAYMELRSLRSDDTAVYYCTRQRDYWGQGVLVTVSS VL: DVVMTQSPLSLPVTLGQPASISCRSSQSLEYGDGYTYLEWYLQRPGQSPRLLIYGVSNRFSGVPDRFIGSGSGTDFTLKISRVEAEDVGVYYCFQATHDPNTFGAGTKLEIK"
  value units: "nM"
  measured value: 1.3
- binder: "xi31D9B3 hIgG1 (antibody, V domains shown, Murine variable domains in human chimeric format, human IgG1; also called xi31D9B3 hlgG1; 31D9B3 hlgG1) VH: QVKLLQSGAALVKPGASVKMSCKASGYTFTDYWVSWVKQSHGKSLEWIGEIYPKNGVSNFNEKFKGKATLTVDKSTSTAYMELRRLTSEDSAIFYCTRQRDYWGQGVMVTVSS VL: DVVLTQTPGSLSVTLGDQASISCRSSQSLEYGDGYTYLEWYLQKPGQSPQLLIYGVSNRFSGVPDRFIGSGSGTDFTLKISRVEPEDLGVYYCFQATHDPNTFGAGTKLELK"
  value units: "nM"
  measured value: 0.88
- binder: "31D9B3 H4L1 hIgG1 (antibody, V domains shown, Humanized, human IgG1; also called 31D9B3 H4L1 hlgG1) VH: QVQLVQSGAEVVKPGASVKMSCKASGYTFTDYWVSWVKQSPGQGLEWIGEIYPKNGVSNFNEKFKGKATLTVDKSTSTAYMELRRLRSDDTAVFYCTRQRDYWGQGVLVTVSS VL: DVVMTQSPLSLPVTLGQPASISCRSSQSLEYGDGYTYLEWFQQRPGQSPRRLIYGVSNRFSGVPDRFSGSGSGTDFTLKISRVEAEDVGVYYCFQATHDPNTFGQGTKLEIK"
  value units: "nM"
  measured value: 2.18
- binder: "31D9B3 H3L1 hIgG1 (antibody, V domains shown, Humanized, human IgG1; also called 31D9B3 H3L1 hlgG1) VH: QVQLVQSGAEVKVPGASVKMSCKASGYTFTDYWVSWVRQSPGQGLEWIGEIYPKNGVSNFNEKFKGRVTLTVDKSTSTAYMELRSLRSDDTAVYYCTRQRDYWGQGVLVTVSS VL: DVVMTQSPLSLPVTLGQPASISCRSSQSLEYGDGYTYLEWFQQRPGQSPRRLIYGVSNRFSGVPDRFSGSGSGTDFTLKISRVEAEDVGVYYCFQATHDPNTFGQGTKLEIK"
  value units: "nM"
  measured value: 3.01
- binder: "31D9B3 H3L2 hIgG1 (antibody, V domains shown, Humanized, human IgG1; also called 31D9B3 H3L2 hlgG1) VH: QVQLVQSGAEVKVPGASVKMSCKASGYTFTDYWVSWVRQSPGQGLEWIGEIYPKNGVSNFNEKFKGRVTLTVDKSTSTAYMELRSLRSDDTAVYYCTRQRDYWGQGVLVTVSS VL: DVVMTQSPLSLPVTLGQPASISCRSSQSLEYGDGYTYLEWYLQRPGQSPRLLIYGVSNRFSGVPDRFSGSGSGTDFTLKISRVEAEDVGVYYCFQATHDPNTFGQGTKLEIK"
  value units: "nM"
  measured value: 1.05

Then this binder:
Would you mind telling me what EC50 value was observed for 31D9B3 H4L2 hIgG1 (antibody, V domains shown, Humanized, human IgG1; also called 31D9B3 H4L2 hlgG1) VH: QVQLVQSGAEVVKPGASVKMSCKASGYTFTDYWVSWVKQSPGQGLEWIGEIYPKNGVSNFNEKFKGKATLTVDKSTSTAYMELRRLRSDDTAVFYCTRQRDYWGQGVLVTVSS VL: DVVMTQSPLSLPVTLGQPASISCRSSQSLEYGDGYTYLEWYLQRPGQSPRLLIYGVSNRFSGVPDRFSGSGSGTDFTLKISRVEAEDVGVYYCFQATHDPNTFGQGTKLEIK ?
0.84
